experiment: In vitro cytotoxicity against the growth of Colon-205 cancer cell line; type: functional; settings: Homo sapiens, Cancer cell lines; read-out: LD50 (the source's name)
assay endpoint: CC50 (µg/mL)
The figure you give is taken to be in µg/mL; do not add the unit.

[[record]]
compound = "CCCCCCC(=O)/C=C\\C=C\\C(=O)c1ccc(C(=O)OC)cc1"
reading = 0.8

[[record]]
compound = "CC(=O)/C=C\\C=C\\C(=O)c1ccccc1"
reading = 1


# context switch: different compound, same CC50
What value of measured CC50 is listed for CCC(=O)/C=C\C=C\C(=O)c1ccccc1 ? 1

====

test: In vitro cytotoxicity against the growth of Colon-205 cancer cell line; format: functional; settings: Homo sapiens, Cancer cell lines; read-out: LD50 (the source's name)
Reported CC50 is given for each of the following compounds.

Use these answered entries as a reference point.
[[record]]
compound = "CCC(=O)/C=C/C=C\\C(C)=O"
assay_endpoint = "CC50"
reading = "> 10 µg/mL"

[[record]]
compound = "CCCCCCC(=O)/C=C/C=C/C(=O)c1ccc(C(=O)OC)cc1"
assay_endpoint = "CC50"
reading = "> 10 µg/mL"


# context switch: different compound, same CC50
What value of measured CC50 is listed for CCC(=O)/C=C/C=C\C(=O)CC(C)C ? > 10 µg/mL
